Reference source for all entries: ChEMBL document CHEMBL1201862

Tested on: OVCAR-5
Test: NCI tumour cell line growth inhibition, 48 h
The source made the active and inactive calls. Rule as the data show it: active = GI50 up to about 1.1 µM and inactive = higher.
Quantity: GI50

Would you please look over these solved cases?
Molecule: C/C(=N\NC(=N)N)C(CN(C)C)C(c1ccccc1)c1c(O)c2ccccc2oc1=O (stereo not given)
GI50: > 100 µM (inactive)

Molecule: O=C(Cc1ccccc1)NN1C(=O)/C(=C\c2ccc(O)cc2)S/C1=N\c1ccccc1
GI50: > 100 µM (inactive)

Molecule: Oc1nc(S)nc2c1CCCN2
GI50: > 100 µM (inactive)

Molecule: COc1cc(OC2OC(COC(=O)c3cc(O)c(O)c(O)c3)C(O)C(O)C2O)ccc1O (stereo not given)
GI50: > 100 µM (inactive)

Molecule: O=C(c1ccco1)N(C(=S)OCCOc1ccccc1)c1ccccc1
GI50: 19.2 µM (inactive)

Molecule: COc1ccc(OCc2ccc3nc(-c4ccccc4)c(Cl)nc3c2)cc1
GI50: 32.1 µM (inactive)

Molecule: COC(=O)[C@@H](NC(=O)N(Cc1ccccc1)C[C@H](CC(C)C)NC(=O)[C@@H](NC(=O)OC(C)(C)C)C(C)C)C(C)C
GI50: > 100 µM (inactive)

Molecule: Cc1[nH]c(/C=C2\C(=O)Nc3ccccc32)c(C)c1CCC(=O)O [ORANTINIB]
GI50: 27.5 µM (inactive)

Molecule: CN(C)c1ccc(C(=N/N=C2\C(=O)Nc3ccccc32)c2ccc(N(C)C)cc2)cc1
GI50: 3.72 µM (inactive)

# GI50 of "CC(=O)Nc1ccc(/C=c2\sc3nnc(-c4cccnc4)n3c2=O)cc1" = 27.5 µM (inactive)

====

Catalogue of compounds with associated GI50
Test system: KM-20L2
Test: NCI tumour cell line growth inhibition, 48 h
The source made the active and inactive calls. Cut-off read from the data, not from the text of the source: active = GI50 up to about 1.1 µM and inactive = higher.

A selection of reference data follows.
Compound: NNC(=S)N/N=C(/C(=O)Nc1cc(Cl)ccc1Cl)C1C(=O)Nc2ccccc2[S+]1[O-] (stereo unspecified)
Assay system: KM-20L2
GI50: > 100 µM (inactive)
--
Compound: Cc1c(CCl)c(=O)oc2c(C)c3occ(CCl)c(=O)c3cc12
Assay system: KM-20L2
GI50: > 100 µM (inactive)

Short answer for "COC[C@H](C)/N=C/N1CCc2ccccc2C1(Cc1ccccc1)Cc1ccccc1" : GI50 was 10.8 µM (inactive)

====

Tested on: HOP-62
Assay: NCI tumour cell line growth inhibition, 48 h
Active and inactive are the calls of the source. Cut-off read from the data, not from the text of the source: active = GI50 up to about 1.1 µM and inactive = higher.
Quantity: GI50

Compound: CC1=C2[C@@H](c3ccccc3)C3C=CC2(C=C3C(F)(F)F)N(C(=O)NC2CCCCC2)C1=O (some centres undefined)
Assay value: 68.1 µM (inactive)

The compound identified as Cc1ccc([N+](=O)[O-])cc1S(=O)(=O)Nc1ccc(C2=NN(c3ccc([N+](=O)[O-])cc3[N+](=O)[O-])C(c3cccs3)C2)cc1 (centres undefined) registered its GI50 at 19.2 µM (inactive)

The compound identified as "CSc1nc(-c2ccccc2)nc(C(C#N)C#N)n1" registered its GI50 at > 100 µM (inactive)

Entry C/C=C/C=N/N(C(=O)c1cc([N+](=O)[O-])cc([N+](=O)[O-])c1)C1=NN=C(c2ccccc2)C(c2ccccc2)N1 (centres undefined) ; GI50 = > 100 µM (inactive)

get_value(item= "COc1ccc(C2=Nc3ccccc3NC(=O)C2)cc1" , readout=GI50) returns 22.5 µM (inactive)

Lab note: measured GI50 of CCC1CCc2c(OC)ccc(OCC(=O)O)c2C1=O (centres undefined) was > 100 µM (inactive)

For this compound ( "Brc1cccc[n+]1-c1ccc2cc(-[n+]3ccccc3Br)ccc2c1" ), measured GI50 is 27.6 µM (inactive)

Reported GI50 for "COc1ccc2nc3cc([N+](=O)[O-])ccc3c(NNc3ccccc3)c2c1" was 27.7 µM (inactive)

Looking up "C=C(C)C(=O)O[C@H]1[C@H]2[C@H](OC(=O)[C@H]2C)[C@H](O)[C@@H](C)[C@@H]2C=CC(=O)[C@]21C" , I see its GI50 listed as 9.06 µM (inactive)

====

System: TK-10
Assay: NCI tumour cell line growth inhibition, 48 h
Activity calls are given as the source filed them. Cut-off read from the data, not from the text of the source: active = GI50 up to about 1.1 µM and inactive = higher.
Quantity: GI50

Example results:
Compound: Cc1nc2c(o1)C(=O)c1ccccc1/C2=N/c1ccc(N2CCOCC2)cc1
Assay value: 48 µM (inactive)

Compound: COc1ccc(Nc2nc3ccccc3nc2-c2cccs2)cc1
Assay value: > 100 µM (inactive)

Compound: C[C@]12CC[C@H]3[C@@H](CCC4=CC(=O)C=C[C@@]43OC(=O)C(F)(F)F)[C@@H]1CCC2=O
Assay value: > 100 µM (inactive)

Compound: CCN1CCC(O)(c2ccc(OC)cc2)C(C(=O)c2ccc(OC)cc2)C1 (stereo not drawn)
Assay value: 3.28 µM (inactive)

Compound: CC(=O)c1c(O)c(C)c(O)c(Cc2c(O)c3c(c(C(=O)/C=C/c4ccccc4)c2O)OC(C)(C)C=C3)c1O
Assay value: 2.98 µM (inactive)

For this compound ( "COP(=O)(OC)/C(=C/c1c[nH]c2ccccc12)C(=O)O" ), measured GI50 is > 100 µM (inactive)

Query CCOP(=O)(OCC)C1C(CO)OC(n2ccc(=O)[nH]c2=O)C1O (stereo not drawn) yields GI50 of > 100 µM (inactive)

Data point: "Cc1cc(C)nc(NC(=S)Nc2ccccc2Cl)c1" ; GI50 = > 100 µM (inactive)

====

Test system: SF-539
Test: NCI tumour cell line growth inhibition, 48 h
Active and inactive are the calls of the source. Rule as the data show it: active = GI50 up to about 1.1 µM and inactive = higher.
Quantity: GI50

Recorded results for 4 molecules are shown here.
Molecule: COc1cccc(C2SCC(=O)N2c2ccc(-n3c(-c4ccccc4)nc4ccccc4c3=O)cc2)c1OC (stereo not given)
GI50: > 100 µM (inactive)
--
Molecule: COc1ccc(OCc2ccc3nc(-c4ccccc4)c(Cl)nc3c2)cc1
GI50: 12.9 µM (inactive)
--
Molecule: COc1ccc2c(c1)CCC(CN1CCN(CCOC(c3ccccc3)c3ccccc3)CC1)C2O (stereo not given)
GI50: 11.3 µM (inactive)
--
Molecule: O=C(NCCCN1CCN(CCCNC(=O)c2cccc3ccccc23)CC1)c1cccc2ccccc12
GI50: 54.7 µM (inactive)

Now for the molecule whose GI50 we want.
Lab note: measured GI50 of "NC(=O)c1ccc(S(=O)(=NS(=O)(=O)c2ccccc2)c2ccc(C(N)=O)cc2)cc1" was > 100 µM (inactive)

====

Test system: UACC-62
Assay: NCI tumour cell line growth inhibition, 48 h
Activity calls are given as the source filed them. No stated cut-off is given here; in the data, active = GI50 up to about 1.1 µM and inactive = higher.
Quantity: GI50

Examples from the recorded data:
Molecule: C=C1C[C@]23CCC4C(C)(C)C(=O)CC[C@]4(C)C2C[C@H]1C(O)C3=O (stereo not given in full)
Assay system: UACC-62
Quantity: GI50
Assay value: > 75 µM (inactive)
--
Molecule: CC(=O)OC1CC2c3cccc4c3C(CC2N(C)C1=O)CN4C(=O)c1ccccc1 (stereo not given)
Assay system: UACC-62
Quantity: GI50
Assay value: 20.3 µM (inactive)
--
Molecule: O=C(O)CCNc1ncc2c(n1)-c1ccccc1OC2
Assay system: UACC-62
Quantity: GI50
Assay value: > 100 µM (inactive)
--
Molecule: CC1=C(C(=O)Nc2cccc(Cl)c2)C(c2ccc([N+](=O)[O-])cc2)C(C(=O)Nc2cccc(Cl)c2)=C(C)N1
Assay system: UACC-62
Quantity: GI50
Assay value: 14 µM (inactive)

Form: molecule = "O=C1C(=CNc2ccc([N+](=O)[O-])cc2)C(=O)N(c2ccccc2)C(=O)N1c1ccccc1" ; GI50 = 41.3 µM (inactive)

====

Tested on: TK-10
Test: NCI tumour cell line growth inhibition, 48 h
Calls of active or inactive are those of the source. Cut-off read from the data, not from the text of the source: active = GI50 up to about 1.1 µM and inactive = higher.
Quantity: GI50

Study these solved cases before continuing.
Compound: CCOC(=O)/C(=N/Nc1ccccc1)N1C(=S)N(C)N=C(C)C=C1S
Assay value: 86.1 µM (inactive)
--
Compound: CCOC(=O)C(=O)Nc1ccccc1CC
Assay value: > 100 µM (inactive)
--
Compound: COc1ccc(-c2c3c(n(C4OC(COC(C)=O)C(OC(C)=O)C(OC(C)=O)C4OC(C)=O)c(=S)c2C#N)CCCC3)cc1 (stereo not given)
Assay value: > 100 µM (inactive)
--
Compound: Cc1cc2c3ccccc3n(C)c2c2c1C(=O)c1ccccc1C2=O
Assay value: 32.5 µM (inactive)

Item: CC1(C)C[C@H]2C=C(C=O)[C@]34C[C@]3(C(=O)OC4O)[C@H]2C1 (stereo not given in full) | GI50: 1.77 µM (inactive)

Notebook: "CNS(=O)(=O)NNS(=O)(=O)c1ccc(Cl)cc1" , GI50 read as > 100 µM (inactive)

// recorded GI50 for Cc1cc(C)c2c(c1)C1=NCCN1C2(O)c1ccc(Cl)cc1 (stereo not given) : 2.79 µM (inactive)

The reported value for COc1ccc(C(CC(=O)c2ccc3c(c2)OCO3)c2c(O)oc3ccccc3c2=O)cc1OC (stereo not given) in terms of GI50 is 67.8 µM (inactive)

Entry "CN(/N=C/c1ccnc2ccccc12)c1ccc([N+](=O)[O-])cc1[N+](=O)[O-]" — recorded GI50 = > 100 µM (inactive)

Lab note: "COc1cc(Nc2cnc3cc(F)c(F)cc3n2)cc(OC)c1" gave GI50 of > 100 µM (inactive)
